target: mMC1R (Mus musculus, UniProt Q01727); test: AlphaScreen cAMP agonist assay, HEK293 cells stably expressing mMC1R
Sequence (Q01727 whole entry): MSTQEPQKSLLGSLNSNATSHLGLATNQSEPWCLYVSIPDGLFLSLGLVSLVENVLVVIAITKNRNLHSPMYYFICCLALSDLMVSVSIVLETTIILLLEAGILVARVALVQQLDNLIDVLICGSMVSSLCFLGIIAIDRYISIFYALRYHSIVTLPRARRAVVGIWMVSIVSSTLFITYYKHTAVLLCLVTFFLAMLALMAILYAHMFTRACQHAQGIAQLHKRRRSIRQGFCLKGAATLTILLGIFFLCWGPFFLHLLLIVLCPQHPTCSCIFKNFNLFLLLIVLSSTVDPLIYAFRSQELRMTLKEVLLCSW
pEC50: −log10 of the molar value.
assay-readout: pEC50

| compound | measured-result |
| --- | --- |
| CCC[C@@H]1CN([C@H](CC2CCCCC2)CN2CCC[C@H]2CN2CCNC2=N)C(=N)N1CC1CCC(C(C)(C)C)CC1 (stereo partly drawn) [Compound 2718.029] | 5.96 |
| CC(C)CC1CNC(=N)N1CC1CCCN1CC(Cc1ccc(O)cc1)N1CC(C(C)O)N(CC2CCC(C(C)(C)C)CC2)C1=N (stereo not drawn) [Compound 2718.057] | 6.30 |
| CCCCC(CN1CCCC1CN1C(=N)NCC1CC(C)C)N1CC(C(C)O)N(CC2CCC(C(C)(C)C)CC2)C1=N (stereo not drawn) [Compound 2718.060] | 5.66 |
| CC(C)C[C@@H]1CNC(=N)N1C[C@H]1CCCN1C[C@@H](CC1CCCCC1)N1C[C@@H]([C@H](C)O)N(CC2CCC(C(C)(C)C)CC2)C1=N (stereo partly drawn) [Compound 2718.047] | 6.06 |
| CC(C)C[C@@H]1CNC(=N)N1C[C@H]1CCCN1C[C@@H](Cc1ccccc1)N1C[C@H]([C@@H](C)O)N(CC2CCC(C(C)(C)C)CC2)C1=N (stereo partly drawn) [Compound 2718.036] | 6.05 |
| CC(C)C[C@H]1CNC(=N)N1C[C@@H]1CCCN1C[C@@H](CC1CCCCC1)N1C[C@@H]([C@H](C)O)N(CC2CCC(C(C)(C)C)CC2)C1=N (stereo partly drawn) [Compound 2718.048] | 6.41 |
| CC(C)C[C@@H]1CNC(=N)N1C[C@@H]1CCCN1C[C@@H](Cc1ccccc1)N1C[C@H]([C@@H](C)O)N(CC2CCC(C(C)(C)C)CC2)C1=N (stereo partly drawn) [Compound 2718.030] | 5.40 |
| CC(C)C[C@@H]1CNC(=N)N1C[C@@H]1CCCN1C[C@@H](CC1CCCCC1)N1CCNC1=N [Compound 2718.012] | 4.82 |
| CCCC1CN(C(CC2CCCCC2)CN2CCCC2CN2C(=N)NCC2C(C)C)C(=N)N1CC1CCC(C(C)(C)C)CC1 (stereo not drawn) [Compound 2718.003] | 6.19 |
| CCC[C@@H]1CN([C@H](CC2CCCCC2)CN2CCC[C@H]2CN2C(=N)NC[C@H]2C(C)C)C(=N)N1 [Compound 2718.015] | 4.96 |
| CC(C)[C@@H]1CNC(=N)N1C[C@@H]1CCCN1C[C@@H](CC1CCCCC1)N1CCNC1=N [Compound 2718.016] | 4.52 |
| CC(C)C[C@@H]1CNC(=N)N1C[C@@H]1CCCN1C[C@H](Cc1ccccc1)N1C[C@H]([C@@H](C)O)N(CC2CCC(C(C)(C)C)CC2)C1=N (stereo partly drawn) [Compound 2718.035] | 5.43 |

----------
target: mMC4R (Mus musculus, UniProt P56450); test: AlphaScreen cAMP agonist assay, HEK293 cells stably expressing mMC4R; details: at 1 mM; not enough stimulation to determine EC50
Sequence (P56450 whole entry): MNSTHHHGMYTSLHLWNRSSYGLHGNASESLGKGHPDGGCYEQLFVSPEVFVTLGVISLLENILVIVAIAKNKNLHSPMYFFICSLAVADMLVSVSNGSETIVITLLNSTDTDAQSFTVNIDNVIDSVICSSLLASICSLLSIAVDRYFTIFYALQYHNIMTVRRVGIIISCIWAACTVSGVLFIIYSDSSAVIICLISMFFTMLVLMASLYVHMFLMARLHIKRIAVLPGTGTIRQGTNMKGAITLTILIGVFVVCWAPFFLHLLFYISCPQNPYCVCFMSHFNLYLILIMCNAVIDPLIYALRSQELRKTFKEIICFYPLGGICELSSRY
assay-readout: mMC4R percent maximal stimulatory response (compared to NDP-MSH) (% @ 1 mM)

| compound | unit-text | measured-result |
| --- | --- | --- |
| CC(C)C[C@@H]1CNC(=N)N1C[C@@H]1CCCN1C[C@H](Cc1ccccc1)N1C[C@H]([C@@H](C)O)N(CC2CCC(C(C)(C)C)CC2)C1=N (some centres unmarked) [Compound 2718.035] | % @ 1 mM | 55 |
| CC(C)C[C@@H]1CNC(=N)N1C[C@@H]1CCCN1C[C@@H](Cc1ccccc1)N1C[C@H]([C@@H](C)O)N(CC2CCC(C(C)(C)C)CC2)C1=N (some centres unmarked) [Compound 2718.030] | % @ 1 mM | 60 |
| CC(C)C[C@@H]1CNC(=N)N1C[C@H]1CCCN1C[C@@H](Cc1ccccc1)N1C[C@@H]([C@H](C)O)N(CC2CCC(C(C)(C)C)CC2)C1=N (some centres unmarked) [Compound 2718.032] | % @ 1 mM | 55 |
| CCC[C@H]1CN([C@@H](CC2CCCCC2)CN2CCC[C@@H]2CN2C(=N)NC[C@@H]2C(C)C)C(=N)N1CC1CCC(C(C)(C)C)CC1 (some centres unmarked) [Compound 2718.054] | % @ 1 mM | 60 |
| CC(C)C[C@@H]1CNC(=N)N1C[C@@H]1CCCN1C[C@@H](CC1CCCCC1)N1CCN(CC2CCC(C(C)(C)C)CC2)C1=N (some centres unmarked) [Compound 2718.025] | % @ 1 mM | 60 |

----------
Each entry below carries its reported pEC50.
target: mMC5R (Mus musculus); assay: AlphaScreen cAMP agonist assay, HEK293 cells stably expressing mMC5R
Sequence (P41149 whole entry): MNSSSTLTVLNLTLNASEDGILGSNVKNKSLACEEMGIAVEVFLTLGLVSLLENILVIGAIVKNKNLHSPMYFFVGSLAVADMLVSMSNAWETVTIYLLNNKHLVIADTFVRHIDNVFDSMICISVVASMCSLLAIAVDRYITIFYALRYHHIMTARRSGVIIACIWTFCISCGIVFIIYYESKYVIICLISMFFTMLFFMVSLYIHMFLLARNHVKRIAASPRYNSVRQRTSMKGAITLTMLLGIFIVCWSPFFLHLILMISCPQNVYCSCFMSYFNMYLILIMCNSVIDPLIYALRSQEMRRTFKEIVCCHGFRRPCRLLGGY
pEC50: −log10 of the molar value.

| compound | limit-operator | pEC50 |
| --- | --- | --- |
| CCN1C(=N)N([C@H](Cc2ccccc2)CN2CCC[C@H]2CN2C(=N)NC[C@H]2CC(C)C)C[C@H]1[C@H](C)O | < | 3.00 |
| CC(C)C[C@@H]1CNC(=N)N1C[C@@H]1CCCN1C[C@@H](CC1CCCCC1)N1C[C@H]([C@@H](C)O)N(CC2CCC(C(C)(C)C)CC2)C1=N (stereo partly drawn) | = | 5.66 |
| C[C@H](O)[C@@H]1CN([C@H](CC2CCCCC2)CN2CCC[C@H]2CN2CCNC2=N)C(=N)N1CC1CCC(C(C)(C)C)CC1 (stereo partly drawn) | = | 6.52 |
| CCC[C@H]1CN([C@@H](CC2CCCCC2)CN2CCC[C@@H]2CN2C(=N)NC[C@@H]2C(C)C)C(=N)N1CC1CCC(C(C)(C)C)CC1 (stereo partly drawn) | = | 5.46 |
| CCCC1CN(C(CC2CCCCC2)CN2CCCC2CN2C(=N)NCC2C(C)C)C(=N)N1CC1CCC(C(C)(C)C)CC1 (stereo not drawn) | = | 5.92 |
| CCC[C@@H]1CN([C@H](CC2CCCCC2)CN2CCC[C@@H]2CN2C(=N)NC[C@H]2C(C)C)C(=N)N1CC1CCC(C(C)(C)C)CC1 (stereo partly drawn) | = | 5.53 |

----------
target: UniProt:Q01727; assay: AlphaScreen cAMP agonist assay, HEK293 cells stably expressing mMC1R; settings: relative to 2718.001
Each entry below lists one item and its recorded fold decreased mMC1R agonist potency value.

| molecule | fold decreased mMC1R agonist potency, fold |
| --- | --- |
| CC(C)C[C@@H]1CNC(=N)N1C[C@@H]1CCCN1C[C@H](Cc1ccccc1)N1C[C@H]([C@@H](C)O)N(CC2CCC(C(C)(C)C)CC2)C1=N (stereo partly shown) | 12 |
| CC(C)C[C@@H]1CNC(=N)N1C[C@@H]1CCCN1C[C@H](Cc1ccccc1)N1C[C@@H]([C@H](C)O)N(CC2CCC(C(C)(C)C)CC2)C1=N (stereo partly shown) | 7 |
| CC(C)C[C@H]1CNC(=N)N1C[C@@H]1CCCN1C[C@H](Cc1ccccc1)N1C[C@H]([C@@H](C)O)N(CC2CCC(C(C)(C)C)CC2)C1=N (stereo partly shown) | 9 |
| CC(C)C[C@@H]1CNC(=N)N1C[C@H]1CCCN1C[C@H](Cc1ccccc1)N1C[C@H]([C@@H](C)O)N(CC2CCC(C(C)(C)C)CC2)C1=N (stereo partly shown) | 125 |

----------
target: mMC5R (Mus musculus); assay: AlphaScreen cAMP agonist assay, HEK293 cells stably expressing mMC5R
pEC50: −log10 of the molar value.
Label Satisfied when pEC50 >= 6; otherwise Not satisfied.

| compound | assigned-category |
| --- | --- |
| CCN1C(=N)N([C@H](CC2CCCCC2)CN2CCC[C@H]2CN2C(=N)NC[C@H]2CC(C)C)C[C@H]1[C@H](C)O | Not satisfied |
| CC(C)CC1CNC(=N)N1CC1CCCN1CC(Cc1c[nH]c2ccccc12)N1CC(C(C)O)N(CC2CCC(C(C)(C)C)CC2)C1=N (stereo not drawn) | Not satisfied |
| CC(C)C[C@H]1CNC(=N)N1C[C@H]1CCCN1C[C@H](CC1CCCCC1)N1C[C@H]([C@@H](C)O)N(CC2CCC(C(C)(C)C)CC2)C1=N (stereo partly drawn) | Not satisfied |
| CC(C)C[C@@H]1CNC(=N)N1C[C@@H]1CCCN1C[C@@H](CC1CCCCC1)N1CCN(CC2CCC(C(C)(C)C)CC2)C1=N (stereo partly drawn) | Satisfied |
| CC(C)CC1CNC(=N)N1CC1CCCN1CC(C1CCCCC1)N1CC(C(C)O)N(CC2CCC(C(C)(C)C)CC2)C1=N (stereo not drawn) | Not satisfied |
| CC(C)CC1CNC(=N)N1CC1CCCN1CC(CC1CCCCC1)N1CC(C(C)O)N(CC2CCC(C(C)(C)C)CC2)C1=N (stereo not drawn) | Satisfied |
| CC(C)C[C@H]1CNC(=N)N1C[C@@H]1CCCN1C[C@H](Cc1ccccc1)N1C[C@H]([C@@H](C)O)N(CC2CCC(C(C)(C)C)CC2)C1=N (stereo partly drawn) | Not satisfied |
| CC(C)C[C@@H]1CNC(=N)N1C[C@@H]1CCCN1C[C@H](Cc1ccccc1)N1C[C@H]([C@@H](C)O)N(CC2CCC(C(C)(C)C)CC2)C1=N (stereo partly drawn) | Not satisfied |
| CC(O)C1CNC(=N)N1CC1CCC(C(C)(C)C)CC1 (stereo not drawn) | Not satisfied |
| CCC[C@@H]1CN([C@H](CC2CCCCC2)CN2CCC[C@H]2CN2C(=N)NC[C@@H]2C(C)C)C(=N)N1CC1CCC(C(C)(C)C)CC1 (stereo partly drawn) | Not satisfied |
